Measured pIC50, listed per entry.
system: Gastrin/cholecystokinin type B receptor (Cavia porcellus)
assay_comment: Inhibition of ligand binding to Cholecystokinin type B receptor from guinea pig cortical membrane.
A value of pIC50 is the negative decimal logarithm of a concentration given in moles per litre.

Worked examples, 2 compounds total:
{"query_smiles": "CCCN1C(=O)[C@H](NC(=O)Nc2cccc(C)c2)N=C([C@@H]2CCCCN2)c2ccccc21", "pIC50": 7.39}
{"query_smiles": "Cc1cccc(NC(=O)N[C@@H]2N=C([C@H]3CCC(C)(C)CCN3)c3ccccc3N(C)C2=O)c1", "pIC50": 7.92}

# context switch: different compound, same pIC50
Given the compound `CCCN1C(=O)[C@H](NC(=O)Nc2cccc(C)c2)N=C([C@H]2CCCCN2)c2ccccc21` and test system Gastrin/cholecystokinin type B receptor (Cavia porcellus), the measured pIC50 is 7.44

Values were extracted from BindingDB's records for doi:10.1021/jm9608523.
